- ASSAY_OVERVIEW: Pharmacokinetic analysis following intravenous administration to beagle dogs
- Assay type: in vivo
- TEST_CONDITIONS: male, beagle, dog, in vivo, iv, 0.5 mg/kg
Labelling field: enter Condition met if recorded MRT is less than 6 h. Enter Condition not met if it equals or exceeds that cut-off.

Example results:
| STRUCTURE_SMILES_STRING | CLASS_ASSIGNMENT |
| --- | --- |
| O=C(NCc1c(F)cc(F)cc1F)c1cn2c(c(O)c1=O)C(=O)N1[C@H](C2)[C@H]2C[C@@H]1C(F)(F)C2 | Condition met |
| O=C(NCc1ccc(F)cc1F)c1cn2c(c(O)c1=O)C(=O)N1[C@@H]3CC[C@@H](C3)O[C@H]1C2 | Condition met |

Problem: Quick check: does C[C@@H](NC(=O)c1cn2c(c(O)c1=O)C(=O)N1[C@H]3CC[C@H](C3)[C@@H]1C2)c1c(F)cc(F)cc1F have MRT under 6 h?
Result: Condition met

Problem: Quick check: does O=C(NCc1c(F)cc(F)cc1F)c1cn2c(c(O)c1=O)C(=O)N1[C@H]3CC[C@H](C3)[C@@H]1C2 have MRT under 6 h?
Result: Condition not met

Problem: Quick check: does O=C(NCc1ccc(F)cc1F)c1cn2c(c(O)c1=O)C(=O)N1[C@H]3CC[C@H](C3)O[C@@H]1C2 have MRT under 6 h?
Result: Condition not met

* * *

Items are presented alongside their recorded log10 of IC50.
- TARGET_SYSTEM: OCT2 (Homo sapiens (Human), UniProt O15244)
- Sequence (O15244 whole entry): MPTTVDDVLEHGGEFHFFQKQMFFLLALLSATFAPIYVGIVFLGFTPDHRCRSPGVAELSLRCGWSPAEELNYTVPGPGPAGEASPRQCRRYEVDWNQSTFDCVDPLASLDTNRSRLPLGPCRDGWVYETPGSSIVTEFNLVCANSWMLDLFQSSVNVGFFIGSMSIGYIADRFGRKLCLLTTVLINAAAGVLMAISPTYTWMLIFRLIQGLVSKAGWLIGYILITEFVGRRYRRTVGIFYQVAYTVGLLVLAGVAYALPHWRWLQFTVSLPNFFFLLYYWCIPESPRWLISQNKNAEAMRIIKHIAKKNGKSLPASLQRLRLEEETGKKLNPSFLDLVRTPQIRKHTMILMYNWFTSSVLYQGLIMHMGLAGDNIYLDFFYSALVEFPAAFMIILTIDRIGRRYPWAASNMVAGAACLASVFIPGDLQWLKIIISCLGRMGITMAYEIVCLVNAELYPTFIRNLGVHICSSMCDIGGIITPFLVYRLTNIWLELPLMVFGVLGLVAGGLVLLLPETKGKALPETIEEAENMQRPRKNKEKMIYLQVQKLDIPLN
- ASSAY_OVERVIEW: OCT2 inhibition assay (14C-TEA uptake, OCT2-transfected MDCKII cells)
- Type: cell-based
- TEST_CONDITIONS: OCT2 mediated uptake of 14C-TEA (20 μM), MDCKII cells; read-out: IC50
- Method: On assay day, cells were trypsinized and resuspended in Krebs-Henseleit Buffer (KHB), pH 7.4 at […]. Cells were preincubated for 15 min in assay plate before addition of test compound or substrate. […] Samples were then counted on liquid scintillation counter and dpm counts were used to perform the following calculations.
Response schema: value (number) is log10 of IC50 in units of nM.

| COMPOUND | TARGET_SYSTEM | log10 of IC50 |
| --- | --- | --- |
| O=C(NCc1c(F)cc(F)cc1F)c1cn2c(c(O)c1=O)C(=O)N1[C@@H]3CC[C@@H](C3)O[C@H]1C2 [Compound 45] | OCT2 (Homo sapiens (Human), UniProt O15244) | 2.14 |
| O=C(NCc1c(F)cc(F)cc1F)c1cn2c(c(O)c1=O)C(=O)N1[C@H](C2)[C@H]2C[C@@H]1C(F)(F)C2 [Compound 83] | OCT2 (Homo sapiens (Human), UniProt O15244) | 4.00 |
| O=C(NCc1ccc(F)cc1F)c1cn2c(c(O)c1=O)C(=O)N1[C@@H]3CC[C@@H](C3)O[C@H]1C2 [Compound 3] | OCT2 (Homo sapiens (Human), UniProt O15244) | 2.40 |

Problem: Field request: log10 of IC50 | item: O=C(NCc1c(F)cc(F)cc1F)c1cn2c(c(O)c1=O)C(=O)N1[C@H]3C[C@H](C3)[C@H]1C2 (single isomer, unassigned) [Compound 96]
Result: 3.13

Problem: Field request: log10 of IC50 | item: O=C(NCc1c(F)cc(F)cc1F)c1cn2c(c(O)c1=O)C(=O)N1[C@@H](C2)[C@H]2C[C@@H]1C(F)(F)C2 [Compound 98]
Result: 3.57

Problem: Field request: log10 of IC50 | item: O=C(NCc1cc(F)c(F)cc1F)c1cn2c(c(O)c1=O)C(=O)N1[C@H]3CC[C@H](C3)O[C@@H]1C2 [Compound 64]
Result: 1.97

* * *

- TARGET_SYSTEM: PXR (Homo sapiens (Human))
- ASSAY_OVERVIEW: Human PXR activation assay (luciferase reporter gene assay, DPX2 cells)
- Assay type: cell-based
- TEST_CONDITIONS: human
RESULT_TYPE: Emax at 24 h, 15 µM (%)
Numbers only here, please. The scale is %.

| COMPOUND | RESULT_TYPE | RECORDED_MEASUREMENT |
| --- | --- | --- |
| O=C(NCc1c(F)cc(F)cc1F)c1cn2c(c(O)c1=O)C(=O)N1[C@H]3CCC[C@H](C3)[C@H]1C2 [Compound 85] | Emax at 24 h, 15 µM | 77 |

Problem: Field request: Emax at 24 h, 15 µM | item: O=C(NCc1c(F)cc(F)cc1Cl)c1cn2c(c(O)c1=O)C(=O)N1[C@H]3CC[C@H](C3)[C@@H]1C2 [Compound 93]
Result: 9

Problem: Field request: Emax at 24 h, 15 µM | item: O=C(NCc1ccc(F)cc1)c1cn2c(c(O)c1=O)C(=O)N1[C@@H]3CC[C@@H](C3)O[C@H]1C2 [Compound 15]
Result: 20

* * *

Items are presented alongside their recorded CC50 at 5 days.
- ASSAY_OVERVIEW: in vitro
- TEST_CONDITIONS: human, CC50 nM in MT-4
Your answer should be a number followed by the unit of measure.

# annotated cases, reported CC50 at 5 days shown
| COMPOUND | CC50 at 5 days |
| --- | --- |
| C[C@@H](NC(=O)c1cn2c(c(O)c1=O)C(=O)N1[C@H]3CC[C@H](C3)[C@@H]1C2)c1ccc(F)cc1F | 10300 nM |
| O=C(NCc1cccc(F)c1F)c1cn2c(c(O)c1=O)C(=O)N1[C@@H]3CC[C@@H](C3)O[C@H]1C2 | 13600 nM |
| C[C@@H](NC(=O)c1cn2c(c(O)c1=O)C(=O)N1[C@H]3CC[C@H](C3)[C@@H]1C2)c1c(F)cc(F)cc1F | 10100 nM |

Problem: Field request: CC50 at 5 days | item: O=C(NCc1c(F)cc(F)cc1F)c1cn2c(c(O)c1=O)C(=O)N1[C@H]3CC(F)C(C3)[C@@H]1C2 (stereo in doubt)
Result: 17200 nM

Problem: Field request: CC50 at 5 days | item: CC1CC2CC1OC1Cn3cc(C(=O)NCc4ccc(F)cc4F)c(=O)c(O)c3C(=O)N21 (single isomer, unassigned)
Result: 9560 nM

Problem: Field request: CC50 at 5 days | item: O=C(NCc1ccc(F)cc1F)c1cn2c(c(O)c1=O)C(=O)N1[C@@H]3CC[C@@H](C3)O[C@H]1C2 (racemic) [Compound 1]
Result: 5820 nM

Problem: Field request: CC50 at 5 days | item: O=C(NCc1ccc(F)c(F)c1F)c1cn2c(c(O)c1=O)C(=O)N1[C@@H]3CC[C@@H](C3)O[C@H]1C2
Result: 9870 nM

Problem: Field request: CC50 at 5 days | item: O=C(NCc1ccc(F)c(Cl)c1F)c1cn2c(c(O)c1=O)C(=O)N1[C@H]3CC[C@H](C3)[C@@H]1C2
Result: 4770 nM

Problem: Field request: CC50 at 5 days | item: C[C@@H](NC(=O)c1cn2c(c(O)c1=O)C(=O)N1[C@H]3CC[C@H](C3)O[C@@H]1C2)c1ccc(F)cc1F
Result: 3340 nM

Problem: Field request: CC50 at 5 days | item: O=C(NCc1ccc(F)cc1F)c1cn2c(c(O)c1=O)C(=O)N1C(C2)[N@@]2CC[C@@H]1C2 (stereo partly shown)
Result: 45800 nM

Problem: Field request: CC50 at 5 days | item: O=C(NCc1ccc(F)c(Cl)c1)c1cn2c(c(O)c1=O)C(=O)N1[C@H]3CC[C@H](C3)[C@@H]1C2
Result: 5290 nM

* * *

- TARGET_SYSTEM: PXR (Homo sapiens (Human), UniProt O75469)
- Sequence (O75469 whole entry): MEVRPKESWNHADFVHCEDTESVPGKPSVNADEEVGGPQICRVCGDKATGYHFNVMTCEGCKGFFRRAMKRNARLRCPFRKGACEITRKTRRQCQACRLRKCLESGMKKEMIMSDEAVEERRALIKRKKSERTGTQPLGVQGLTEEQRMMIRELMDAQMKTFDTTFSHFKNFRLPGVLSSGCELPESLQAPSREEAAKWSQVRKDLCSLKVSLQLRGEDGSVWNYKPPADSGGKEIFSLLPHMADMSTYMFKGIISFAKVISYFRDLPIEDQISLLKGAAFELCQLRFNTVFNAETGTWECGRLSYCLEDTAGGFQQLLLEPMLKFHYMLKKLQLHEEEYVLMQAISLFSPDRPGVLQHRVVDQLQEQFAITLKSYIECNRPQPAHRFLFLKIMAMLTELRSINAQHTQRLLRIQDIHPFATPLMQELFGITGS
- ASSAY_OVERVIEW: Human PXR activation assay (luciferase reporter gene assay, DPX2 cells)
- Assay type: cell-based
- TEST_CONDITIONS: human
RESULT_TYPE: Emax at 24 h, 15 µM (%)
Numbers only here, please. The scale is %.

| COMPOUND | RESULT_TYPE | RESULT_UNIT | RECORDED_MEASUREMENT |
| --- | --- | --- | --- |
| O=C(NCc1cc(F)c(F)cc1F)c1cn2c(c(O)c1=O)C(=O)N1[C@H]3CC[C@H](C3)[C@@H]1C2 [Compound 79] | Emax at 24 h, 15 µM | % | 0 |
| O=C(NCc1ccc(F)cc1Cl)c1cn2c(c(O)c1=O)C(=O)N1[C@H]3CC[C@H](C3)[C@@H]1C2 [Compound 68] | Emax at 24 h, 15 µM | % | 6 |
| Cc1cccc(CNC(=O)c2cn3c(c(O)c2=O)C(=O)N2[C@H]4CC[C@H](C4)[C@@H]2C3)c1F [Compound 70] | Emax at 24 h, 15 µM | % | 10 |

Problem: Field request: Emax at 24 h, 15 µM | item: O=C(NCc1c(F)cc(F)cc1F)c1cn2c(c(O)c1=O)C(=O)N1[C@@H]3C[C@@H](C[C@H]3F)[C@@H]1C2 [Compound 82]
Result: 1

Problem: Field request: Emax at 24 h, 15 µM | item: O=C(NCc1ccc(F)cc1F)c1cn2c(c(O)c1=O)C(=O)N1C(C2)[N@]2CC[C@H]1C2 (stereo partly drawn) [Compound 6]
Result: 0

Problem: Field request: Emax at 24 h, 15 µM | item: O=C(NCc1ccc(F)c(Cl)c1F)c1cn2c(c(O)c1=O)C(=O)N1[C@@H]3C[C@H]([C@@H]1C2)C(F)(F)C3 [Compound 58]
Result: 1

Problem: Field request: Emax at 24 h, 15 µM | item: O=C(NCc1cccc(Cl)c1Cl)c1cn2c(c(O)c1=O)C(=O)N1[C@H]3CC[C@H](C3)[C@@H]1C2 [Compound 60]
Result: 3

Problem: Field request: Emax at 24 h, 15 µM | item: O=C(NCc1ccccc1F)c1cn2c(c(O)c1=O)C(=O)N1[C@@H]3CC[C@@H](C3)O[C@H]1C2 [Compound 23]
Result: 45

Problem: Field request: Emax at 24 h, 15 µM | item: O=C(NCc1cccc(F)c1F)c1cn2c(c(O)c1=O)C(=O)N1[C@@H]3CC[C@@H](C3)O[C@H]1C2 [Compound 16]
Result: 17

Problem: Field request: Emax at 24 h, 15 µM | item: O=C(NCc1ccc(F)cc1F)c1cn2c(c(O)c1=O)C(=O)N1[C@@H]3CC[C@@H](C3)O[C@H]1C2 [Compound 3]
Result: 7.5
